- System: CaCO2 cells
- Assay Info: MTT assay, CaCO2
- Type: cell-based
- Study Conditions: Homo sapiens, Caco-2, 72 h, read-out: IC50 of niclosamide (MTT)
Reported Property: pIC50
Answers are plain numbers, as −log10 of the molar value.

In: Please report the measured pIC50 for O=C(Nc1ccc([N+](=O)[O-])cc1Cl)c1cc(Cl)ccc1O [niclosamide]
Out: 6.00

* * *

- Tested on: CaCO2 cells
- Assay Info: MTT assay, CaCO2
- Assay type: cell-based
- Study Conditions: Homo sapiens, Caco-2, 72 h, read-out: IC50 of niclosamide (MTT) with oxaliplatin
- Method: AsPC-1 tumor cells were cultured with T cells at a 1:5 ratio for 7 days in the presence of MEDI-565 or Cont BiTE (100 ng/mL). […] The adherent cells were lysed with 150 μL of dimethyl sulfoxide (DMSO) and the optical density (OD) at 550 nm was measured. Colorectal cancer cell lines were incubated in 96-well flat-bottomed plates at 5,000 cells per well in 200 μL of complete RPMI1640 medium. […] The adherent cells were lysed with 150 μL of DMSO, and then optical density (OD) at 562 nm was measured. […]
Reported Property: pIC50
One number for each entry, as −log10 of the molar value.

In: // fetch pIC50 given entry O=C(Nc1ccc([N+](=O)[O-])cc1Cl)c1cc(Cl)ccc1O [niclosamide]
Out: 6.30

* * *

- Assay Info: in vivo
- Study Conditions: NOD/SCID, mouse, po, 200 mg/kg
Reported Property: concentration at 1.5 hr (ng/mL)
Answers are plain numbers, in ng/mL.

In: Look up concentration at 1.5 hr of O=C(Nc1ccc([N+](=O)[O-])cc1Cl)c1cc(Cl)ccc1O [niclosamide] and report it.
Out: 77.6

* * *

- Assay Info: in vivo
- Study Conditions: NOD/SCID, mouse, po, 200 mg/kg
Reported Property: Cmax (ng/mL)
Give bare numbers, in ng/mL.

In: Respond only with Cmax recorded for O=C(Nc1ccc([N+](=O)[O-])cc1Cl)c1cc(Cl)ccc1O [niclosamide]
Out: 894

The measured values listed here are drawn from patent US20130005802A1.
